Assay: Thermodynamic solubility of compound in PEG400
Format: physicochemical
MEASUREMENT KIND: solubility thermodynamic (mg/mL)
The reply should contain only the number, in mg/mL.

Ask | Consider the molecule `O=[N+]([O-])c1cn2c(n1)OC[C@H](Oc1ccc(OC(F)(F)F)cc1)C2` and give its measured solubility thermodynamic.
Reply | 21

* * *

Assay: Selectivity index, ratio of IC50 for cytotoxicity against rat L6 cells to IC50 for antitrypanosomal activity against Trypanosoma cruzi Tulahuen strain C2C4 amastigotes infected in rat L6 cells
MEASUREMENT KIND: selectivity ratio
Reply briefly: the number, and no unit.

Ask | Consider the molecule `O=[N+]([O-])c1cn2c(n1)OC[C@H](OCc1ccc(-c3ccc(C(F)(F)F)cc3Cl)cc1)C2` and give its measured selectivity ratio.
Reply | 116

Ask | Similarly, O=[N+]([O-])c1cn2c(n1)OC(COc1ccc(-c3ccc(OC(F)(F)F)cc3)nn1)CC2 (stereo not drawn) ?
Reply | 111

Ask | Similarly, O=[N+]([O-])c1cn2c(n1)OC(COc1cnc(-c3ccc(OC(F)(F)F)cc3)nc1)CC2 (stereo not drawn) ?
Reply | 212

Ask | Similarly, `O=[N+]([O-])c1cn2c(n1)OC[C@@H](OCc1ccc(-c3ccc(OC(F)(F)F)cc3Cl)cc1)C2` ?
Reply | 3.3

* * *

Assay: Selectivity index, ratio of IC50 for cytotoxicity against rat 3T3 cells to IC50 for antitrypanosomal activity against Trypanosoma cruzi Tulahuen strain C2C4 amastigotes infected in rat 3T3 cells
Conditions: 3T3 cells
For each record, write down the corresponding selectivity ratio.

Ask | Consider the compound `O=C(Cn1ccnc1[N+](=O)[O-])NCc1ccccc1` and give its measured selectivity ratio.
Reply | > 11

Ask | Similarly, `O=[N+]([O-])c1cn2c(n1)OC[C@H](Oc1ccc(OC(F)(F)F)cc1)C2` ?
Reply | > 61

Ask | Similarly, `O=[N+]([O-])c1cn2c(n1)OC[C@@H](OCC#Cc1ccc(-c3ccc(OC(F)(F)F)cc3)cn1)C2` ?
Reply | > 51

Ask | Similarly, `O=[N+]([O-])c1cn2c(n1)OC[C@H](OCC#Cc1ccc(-c3ccc(C(F)(F)F)cc3)cn1)C2` ?
Reply | > 137

Ask | Similarly, `O=[N+]([O-])c1cn2c(n1)OC[C@H](OCc1ccc(-c3ccc(C(F)(F)F)cc3Cl)cc1)C2` ?
Reply | > 132

Ask | Similarly, `O=[N+]([O-])c1cn2c(n1)OC[C@@H](OCC#Cc1ccc(-c3ccc(C(F)(F)F)cc3)cn1)C2` ?
Reply | > 73

Ask | Similarly, CC1(COc2ccc(OC(F)(F)F)cc2)CCn2nc([N+](=O)[O-])nc2O1 (centres undefined) ?
Reply | > 168

Ask | Similarly, `O=[N+]([O-])c1cn2c(n1)OC[C@H](OCC#Cc1ccc(OC(F)(F)F)cc1)C2` ?
Reply | > 195

Ask | Similarly, O=[N+]([O-])c1cn2c(n1)OC(COc1ccc(-c3ccc(F)nc3)cc1)CC2 (centres undefined) ?
Reply | > 500

* * *

Assay: Kinetic solubility of compound in water sonicated for 15 mins by HPLC analysis
MEASUREMENT KIND: solubility kinetic at 0.25 h (µg/mL)
The reply should contain only the number, in µg/mL.

Ask | Consider the molecule `O=[N+]([O-])c1nc2n(n1)C[C@H](O)CO2` and give its measured solubility kinetic at 0.25 h.
Reply | 8750

Ask | Similarly, O=[N+]([O-])c1cn2c(n1)S(=O)(=O)CC(OCc1ccc(COc3ccccc3)cc1)C2 (stereo not given) ?
Reply | 0.13

Ask | Similarly, O=[N+]([O-])c1cn2c(n1)OCC(COc1ccc(-c3ccc(F)cc3)cn1)C2 (stereo not given) ?
Reply | 1.1

* * *

Test: Kinetic solubility of compound in water sonicated for 15 mins by HPLC analysis
Output condition met for solubility kinetic at 0.25 h not less than 0.6 µg/mL; output condition not met otherwise.

Ask | Threshold query (solubility kinetic at 0.25 h >= 0.6 µg/mL) on `O=[N+]([O-])c1cn2c(n1)OC[C@@H](OCc1ccc(-c3ccc(C(F)(F)F)cc3Cl)cc1)C2`
Reply | condition not met

Ask | Similarly, CC1(COc2ccc(OC(F)(F)F)cc2)CCn2cc([N+](=O)[O-])nc2S1(=O)=O (centres undefined) ?
Reply | condition met

Ask | Similarly, `O=[N+]([O-])c1cn2c(n1)OC[C@@H](OCC#Cc1ccc(-c3ccc(C(F)(F)F)cc3)cn1)C2` ?
Reply | condition not met

Ask | Similarly, O=[N+]([O-])c1cn2c(n1)[S+]([O-])CC(OCc1ccc(COc3ccccc3)cc1)C2 (centres undefined) ?
Reply | condition not met

Ask | Similarly, `O=[N+]([O-])c1cn2c(n1)OC[C@H](OCc1ccc(-c3ccc(OC(F)(F)F)cc3Cl)cc1)C2` ?
Reply | condition not met

Ask | Similarly, `O=[N+]([O-])c1nc2n(n1)C[C@H](OCc1ccc(OCc3ccccc3)cc1)CO2` ?
Reply | condition not met

Ask | Similarly, `O=[N+]([O-])c1cn2c(n1)OC[C@H](OCC#Cc1ccc(-c3ccc(C(F)(F)F)cc3)cn1)C2` ?
Reply | condition met

Ask | Similarly, `O=[N+]([O-])c1cn2c(n1)OC[C@@H](OCC#Cc1ccc(-c3ccc(OC(F)(F)F)cc3)cn1)C2` ?
Reply | condition not met

* * *

Assay: Kinetic solubility of compound in 0.1M HCl at pH 1 sonicated for 15 mins by HPLC analysis
Type: physicochemical
Conditions: read-out: Kinetic_solubility
For each record, write down the corresponding solubility kinetic at 0.25 h.
The reply should contain only the number, in µg/mL.

Ask | Consider the molecule `O=[N+]([O-])c1cn2c(n1)OC[C@H](OCC#Cc1ccc(-c3ccc(OC(F)(F)F)cc3)cn1)C2` and give its measured solubility kinetic at 0.25 h.
Reply | 3

Ask | Similarly, `O=[N+]([O-])c1cn2c(n1)OC[C@H](OCc1ccc(-c3ccc(C(F)(F)F)cc3Cl)cn1)C2` ?
Reply | 299

Ask | Similarly, `O=[N+]([O-])c1cn2c(n1)OC[C@H](OCC#Cc1ccc(-c3ccc(C(F)(F)F)cc3)cn1)C2` ?
Reply | 7.6

* * *

Molecular target: Cytochrome P450 3A4 (Homo sapiens)
Sequence (P08684 whole entry): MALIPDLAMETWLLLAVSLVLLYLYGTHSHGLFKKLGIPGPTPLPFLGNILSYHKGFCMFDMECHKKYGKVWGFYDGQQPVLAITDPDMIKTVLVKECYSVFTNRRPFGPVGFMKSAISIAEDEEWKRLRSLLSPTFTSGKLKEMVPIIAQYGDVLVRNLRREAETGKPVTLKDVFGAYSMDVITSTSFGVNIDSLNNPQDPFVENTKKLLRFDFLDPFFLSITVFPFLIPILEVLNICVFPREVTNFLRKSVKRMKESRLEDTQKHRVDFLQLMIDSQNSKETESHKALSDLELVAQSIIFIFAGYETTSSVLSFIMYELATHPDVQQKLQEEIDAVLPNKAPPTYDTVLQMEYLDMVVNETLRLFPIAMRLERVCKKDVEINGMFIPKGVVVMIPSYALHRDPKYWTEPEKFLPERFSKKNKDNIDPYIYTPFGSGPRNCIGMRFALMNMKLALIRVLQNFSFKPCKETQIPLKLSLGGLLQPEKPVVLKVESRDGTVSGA
pIC50: −log10 of the molar value.
MEASUREMENT KIND: pIC50

Ask | Consider the compound `O=[N+]([O-])c1cn2c(n1)OC[C@@H](OCc1ccc(-c3ccc(C(F)(F)F)cc3Cl)cc1)C2` and give its measured pIC50.
Reply | < 4.70

* * *

For each record, write down the corresponding log10 IC90.
System: Trypanosoma cruzi
Test: Antitrypanosomal activity against Trypanosoma cruzi Tulahuen strain C2C4 amastigotes infected in rat L6 cells assessed as inhibition of parasite growth incubated for 96 hrs by chlorophenol red-fl-D-galactopyranoside based colorimetric analysis
Assay type: functional, organism-based
Conditions: Tulahuen strain C2C4, L6, time 96 hrs
Please note: log10 values; quantity IC90; unit µM.

Ask | Requested read-out log10 IC90, target or system Trypanosoma cruzi, entry CC1(COc2ccc(OC(F)(F)F)cc2)CCn2cc([N+](=O)[O-])nc2[S+]1[O-] (centres undefined)
Reply | 0.57

Ask | Similarly, O=[N+]([O-])c1cn2c(n1)OC(COc1ncc(-c3ccc(OC(F)(F)F)cc3)cn1)CC2 (centres undefined) ?
Reply | -0.48

Ask | Similarly, CC1(COc2ccc(OC(F)(F)F)cc2)CCn2cc([N+](=O)[O-])nc2S1(=O)=O (centres undefined) ?
Reply | 0.20

Ask | Similarly, `O=[N+]([O-])c1cn2c(n1)OC[C@H](Oc1ccc(OC(F)(F)F)cc1)C2` ?
Reply | 0.00

Ask | Similarly, O=[N+]([O-])c1cn2c(n1)OCC(COc1ccc(-c3ccc(F)cc3)cn1)C2 (centres undefined) ?
Reply | -0.72

Ask | Similarly, `O=[N+]([O-])c1nc2n(n1)C[C@H](O)CO2` ?
Reply | 0.80

Ask | Similarly, O=[N+]([O-])c1cn2c(n1)OC(COc1ccc(-c3ccc(OC(F)(F)F)cc3)nn1)CC2 (centres undefined) ?
Reply | -0.02

Ask | Similarly, CC1(COc2ccc(OC(F)(F)F)cc2)CCn2cc([N+](=O)[O-])nc2S1 (centres undefined) ?
Reply | 0.41

* * *

Assay: Selectivity index, ratio of IC50 for cytotoxicity against rat 3T3 cells to IC50 for antitrypanosomal activity against Trypanosoma cruzi Tulahuen strain C2C4 amastigotes infected in rat 3T3 cells
MEASUREMENT KIND: selectivity ratio

Ask | Consider the compound CC1CS(=O)(=O)CCN1/N=C/c1ccc([N+](=O)[O-])o1 (stereo unspecified) and give its measured selectivity ratio.
Reply | > 60

* * *

Assay: Selectivity index, ratio of IC50 for cytotoxicity against rat L6 cells to IC50 for antitrypanosomal activity against Trypanosoma cruzi Tulahuen strain C2C4 amastigotes infected in rat L6 cells
MEASUREMENT KIND: selectivity ratio

Ask | Consider the compound O=[N+]([O-])c1cn2c(n1)S(=O)(=O)CC(OCc1ccc(COc3ccccc3)cc1)C2 (centres undefined) and give its measured selectivity ratio.
Reply | > 357

Ask | Similarly, O=[N+]([O-])c1cn2c(n1)OC(COc1cnc(-c3ccc(OC(F)(F)F)cc3)cn1)CC2 (centres undefined) ?
Reply | > 476

Ask | Similarly, `O=[N+]([O-])c1cn2c(n1)OC[C@@H](OCC#Cc1ccc(-c3ccc(OC(F)(F)F)cc3)cn1)C2` ?
Reply | > 313

Ask | Similarly, `O=[N+]([O-])c1nc2n(n1)C[C@H](OCc1ccc(OCc3ccccc3)cc1)CO2` ?
Reply | > 2130
